measurement_target: T1, CD47 on the surface of tumor cells (human, UniProt Q08722 19-323)
T1 construct: whole, on cells; Same protein as m4; also called CD47 antigen on the surface of U937 and CCRF cells; SKOV-3
assay_text: FACS, tumor cells, 2 nM
measurement_name: FACS (MFI)
Respond with the bare value in MFI.

Recorded results for 5 binders are shown here.
[
  {
    "binder": "hz140-Hm13/hz182-Lm5 (antibody, V domains shown) VH: EVQLVQSGAEVKKPGASVKVSCKASGYKFTNYVMSWVRQAPGQRLEWMGYINPYNDAIKYNEKFTGRVTITRDTSASTAYMELSSLRSEDTAVYYCAREGDFYANYGRLGFAYWGQGTLVTVSS VL: DIQMTQSPSSLSASVGDRVTITCRASQDISNYLNWYQQKPGKAPKLLLYYTSRLHSGVPSRFSGSGSGTDYTLTISSLQPEDFATYFCQQGDGRPYTFGGGTKVEIKR",
    "unit_annotation": "MFI",
    "FACS (MFI)": 39900
  },
  {
    "binder": "hz140-Hm13/hz182-Lm10 (antibody, V domains shown) VH: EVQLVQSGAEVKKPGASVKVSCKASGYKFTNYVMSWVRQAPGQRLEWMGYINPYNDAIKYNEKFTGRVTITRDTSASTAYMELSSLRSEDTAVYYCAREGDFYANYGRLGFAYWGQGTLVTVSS VL: DIQMTQSPSSLSASVGDRVTITCRASQDISNYLNWYQQKPGKAPKLLLYYTSRLHSGVPSRFSGSGSGTDYTLTISSLQPEDIATYFCQQGAGFPYTFGGGTKVEIKR",
    "unit_annotation": "MFI",
    "FACS (MFI)": 19000
  },
  {
    "binder": "hz140-Hm13/hz182-Lm2 (antibody, V domains shown) VH: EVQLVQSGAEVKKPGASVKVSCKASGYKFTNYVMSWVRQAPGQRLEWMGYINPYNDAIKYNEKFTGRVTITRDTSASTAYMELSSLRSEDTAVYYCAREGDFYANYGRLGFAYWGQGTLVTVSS VL: DIQMTQSPSSLSASVGDRVTITCRASQDISNYLNWYQQKPGKAPKLLLYYTSRLHSGVPSRFSGSGSGTDYTFTISSLQPEDFATYFCQQGAGRPYTFGGGTKVEIKR",
    "unit_annotation": "MFI",
    "FACS (MFI)": 30400
  },
  {
    "binder": "hz140-Hm13/hz182-Lm1 (antibody, V domains shown, also called hz182-Lml) VH: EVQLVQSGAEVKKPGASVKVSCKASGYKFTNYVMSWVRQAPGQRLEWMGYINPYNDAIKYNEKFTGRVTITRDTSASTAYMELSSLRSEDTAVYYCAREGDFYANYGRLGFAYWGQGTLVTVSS VL: DIQMTQSPSSLSASVGDRVTITCRASQDISNYLNWYQQKPGKAPKLLIYYTSRLHSGVPSRFSGSGSGTDYTLTISSLQPEDFATYFCQQGAGRPYTFGGGTKVEIKR",
    "unit_annotation": "MFI",
    "FACS (MFI)": 15500
  },
  {
    "binder": "hz140-Hm13/hz182-Lm11 (antibody, V domains shown) VH: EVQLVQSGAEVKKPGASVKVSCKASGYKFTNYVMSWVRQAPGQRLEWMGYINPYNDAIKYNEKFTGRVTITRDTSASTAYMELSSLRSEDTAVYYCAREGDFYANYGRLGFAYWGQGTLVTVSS VL: DIQMTQSPSSLSASVGDRVTITCRASQDISNYLNWYQQKPGKAPKLLLYYTSRLHSGVPSRFSGSGSGTDYTLTISSLQPEDIATYFCQQGDTFPYTFGGGTKVEIKR",
    "unit_annotation": "MFI",
    "FACS (MFI)": 20100
  }
]

FACS (MFI) for hz140-Hm13/hz182-L (antibody, V domains shown) VH: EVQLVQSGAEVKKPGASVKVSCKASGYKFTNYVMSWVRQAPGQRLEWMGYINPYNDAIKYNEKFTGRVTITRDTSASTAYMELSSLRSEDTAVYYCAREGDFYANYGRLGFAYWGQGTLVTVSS VL: DIQMTQSPSSLSASVGDRVTITCRASQDISNYLNWYQQKPGKAPKLLLYYTSRLHSGVPSRFSGSGSGTDYTLTISSLQPEDFATYFCQQGAGRPYTFGGGTKVEIK ?
25800

What about this binder? hz140-Hm13/hz182-Lm6 (antibody, V domains shown) VH: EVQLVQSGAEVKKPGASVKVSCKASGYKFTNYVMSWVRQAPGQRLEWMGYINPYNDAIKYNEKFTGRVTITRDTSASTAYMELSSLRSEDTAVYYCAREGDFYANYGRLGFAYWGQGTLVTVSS VL: DIQMTQSPSSLSASVGDRVTITCRASQDISNYLNWYQQKPGKAPKLLLYYTSRLHSGVPSRFSGSGSGTDYTLTISSLQPEDFATYFCQQGATRPYTFGGGTKVEIKR
15900

What about this binder? hz140-Hm13/hz182-Lm7 (antibody, V domains shown) VH: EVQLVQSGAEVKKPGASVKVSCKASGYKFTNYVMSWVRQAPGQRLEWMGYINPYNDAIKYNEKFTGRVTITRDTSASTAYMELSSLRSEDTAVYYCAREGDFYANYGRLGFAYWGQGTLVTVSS VL: DIQMTQSPSSLSASVGDRVTITCRASQDISNYLNWYQQKPGKAPKLLLYYTSRLHSGVPSRFSGSGSGTDYTLTISSLQPEDFATYFCQQGAGFPYTFGGGTKVEIKR
17800

What about this binder? hz140-Hm13/hz182-Lm9 (antibody, V domains shown) VH: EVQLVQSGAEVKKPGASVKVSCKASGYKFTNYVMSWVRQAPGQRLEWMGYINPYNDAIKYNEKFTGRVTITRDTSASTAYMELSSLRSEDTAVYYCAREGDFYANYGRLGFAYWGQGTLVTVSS VL: DIQMTQSPSSLSASVGDRVTITCRASQDISNYLNWYQQKPGKAPKLLLYYTSRLHSGVPSRFSGSGSGTDYTLTISSLQPEDFATYFCQQGDTFPYTFGGGTKVEIKR
16400

What about this binder? hz140-Hm13/hz182-Lm4 (antibody, V domains shown) VH: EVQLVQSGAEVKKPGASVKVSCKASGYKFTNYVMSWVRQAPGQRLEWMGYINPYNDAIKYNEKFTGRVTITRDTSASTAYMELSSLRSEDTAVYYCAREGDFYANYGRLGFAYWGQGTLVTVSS VL: DIQMTQSPSSLSASVGDRVTITCRASQDITNYLNWYQQKPGKAPKLLLYYTSRLHSGVPSRFSGSGSGTDYTLTISSLQPEDFATYFCQQGAGRPYTFGGGTKVEIKR
28500

What about this binder? hz140-Hm13/hz182-Lm3 (antibody, V domains shown) VH: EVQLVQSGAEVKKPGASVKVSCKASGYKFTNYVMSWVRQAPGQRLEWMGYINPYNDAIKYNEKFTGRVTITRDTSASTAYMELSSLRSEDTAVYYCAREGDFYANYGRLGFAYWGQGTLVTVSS VL: DIQMTQSPSSLSASVGDRVTITCRASQDISNYLNWYQQKPGKAPKLLLYYTSRLHSGVPSRFSGSGSGTDYTLTISSLQPEDIATYFCQQGAGRPYTFGGGTKVEIKR
30000
